The reported numbers originate from BindingDB's records for doi:10.1016/j.bmcl.2018.02.046.

- measuredTarget: Proprotein convertase subtilisin/kexin type 9 (Homo sapiens)
- Sequence (Q8NBP7 31-152 limits assumed): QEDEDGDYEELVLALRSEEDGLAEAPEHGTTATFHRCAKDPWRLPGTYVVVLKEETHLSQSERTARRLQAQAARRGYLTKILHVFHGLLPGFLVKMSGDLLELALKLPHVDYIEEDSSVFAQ
- Sequence (Q8NBP7 153-692 limits assumed): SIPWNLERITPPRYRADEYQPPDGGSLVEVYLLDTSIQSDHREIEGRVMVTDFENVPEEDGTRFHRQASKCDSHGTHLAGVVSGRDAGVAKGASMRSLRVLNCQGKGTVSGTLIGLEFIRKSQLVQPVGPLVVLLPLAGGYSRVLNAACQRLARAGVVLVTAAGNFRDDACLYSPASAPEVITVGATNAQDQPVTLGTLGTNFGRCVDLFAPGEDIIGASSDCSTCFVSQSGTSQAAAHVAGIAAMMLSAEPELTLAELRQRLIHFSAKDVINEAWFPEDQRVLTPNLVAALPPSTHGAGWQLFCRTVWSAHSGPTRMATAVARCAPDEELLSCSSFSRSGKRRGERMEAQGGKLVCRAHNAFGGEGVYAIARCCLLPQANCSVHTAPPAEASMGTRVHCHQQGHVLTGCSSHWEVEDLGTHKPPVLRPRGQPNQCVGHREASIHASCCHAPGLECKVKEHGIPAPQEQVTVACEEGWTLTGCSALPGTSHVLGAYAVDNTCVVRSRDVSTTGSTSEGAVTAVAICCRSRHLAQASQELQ
- protocolSummary: Inhibition of PCSK9 binding to LDLR in human HuH7 cells after 5 hrs by On-cell Western assay
quantityName: IC50 (µM)

* H-LILPKHSDAD-OH | 1.6
